- Tested on: T47D
- assay notes: NCI tumour cell line growth inhibition, 48 h
Active and inactive are the calls of the source. Cut-off read from the data, not from the text of the source: active = GI50 up to about 1.1 µM and inactive = higher.

compound: OCC1OC(N2CCN(C3OC(CO)C(O)C(O)C3O)CC2)C(O)C(O)C1O (stereo not given)
GI50: > 100 µM (inactive)
//
compound: COC(=O)C1=C(O)C(C(=O)OC)[C@]2(O)[C@H](C(=O)OC)[C@H]1C[C@@H](c1ccc(C(F)(F)F)cc1)[C@H]2C(=O)OC (stereo not given in full)
GI50: 3.44 µM (inactive)
//
compound: NC(=O)c1ncn2c1CNC(=O)C2
GI50: > 100 µM (inactive)
//
compound: C[N+](C)(C)CCOP(=O)(O)OP(=O)([O-])OCC1CCC(n2ccc(N)nc2=O)O1 (stereo not given)
GI50: > 100 µM (inactive)
//
compound: COc1cc2c(cc1O)CCN(C)[C@H]2Cc1ccc(Oc2c(O)c(OC)cc3c2C[C@H]2c4c(c(OC)c(OC)c(OC)c4-3)CCN2C)cc1
GI50: 6.05 µM (inactive)
//
compound: S=c1c2cc(I)ccc2nc(S)n1Cc1ccccc1
GI50: 1.5 µM (inactive)
//
compound: COC(=O)CCc1ccc2c(c1)CC1(Cc3ccccc3C1)C2
GI50: > 100 µM (inactive)
//
compound: CC(C)/C(Cl)=N\OC(=O)Nc1ccc(F)cc1
GI50: 6.53 µM (inactive)
//
compound: CCNCC(=O)Nc1ccc2c(c1)C(=O)c1ccc(NC(=O)CNCC)cc1C2=O
GI50: 3.86 µM (inactive)
//
compound: Cc1ccc(SCC(CSCCO)OCn2cnc3c2N=C(N)NC32OCCO2)cc1 (stereo not given)
GI50: > 100 µM (inactive)
//
compound: C=C(CO)C(=O)OC1CC(=C)C2CC(O)C(C)C2C2OC(=O)C(=C)C12 (stereo not given)
GI50: 49.4 µM (inactive)
//
compound: O=C(CSc1nc2ccc(I)cc2c(=O)n1Cc1ccccc1)NN1C(=O)CSC1c1ccccc1 (stereo not given)
GI50: 28.1 µM (inactive)
//
compound: Cc1ncc(COP(=O)(O)O)c(/C=C2\SC(=S)NC2=O)c1O
GI50: > 100 µM (inactive)
//
compound: COc1cc2c3c4c1OCc1c5c(cc(c1-4)CC3[N+](C)(C)CC2)OCO5 (stereo not given)
GI50: > 100 µM (inactive)
//
compound: CCCCc1ccc(Nc2nc(Cl)c3ncn(COCCOC(C)=O)c3n2)cc1
GI50: 22.8 µM (inactive)
//
compound: COc1cc2c(cc1OC)C1c3ccccc3CCCN1CC2 (stereo not given)
GI50: > 100 µM (inactive)
//
compound: CN(CCCn1ccnc1[N+](=O)[O-])CCCn1ccnc1[N+](=O)[O-]
GI50: > 100 µM (inactive)
//
compound: COc1ccc(N2C(=O)/C(=C\c3cc(OC)c(OC)c(OC)c3)SC2c2ccccc2)cc1 (stereo not given)
GI50: 42.6 µM (inactive)
//
compound: O=[N+]([O-])C[C@@]12O[C@]3(O)C4C5CC(C6C5C3C61)C42 (stereo not given in full)
GI50: > 100 µM (inactive)
//
compound: C=CC/C(C(=O)OC)=C(/C(=O)OC)N(CCC)CCC
GI50: > 100 µM (inactive)

Just for reference, ChEMBL document CHEMBL1201862 is where these values come from.
